B1: Hairpin Ribozyme (parent)
chain: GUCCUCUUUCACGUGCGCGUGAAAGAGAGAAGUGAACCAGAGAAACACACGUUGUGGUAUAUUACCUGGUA

variants of: B1; test: self-cleavage, relative activity (ratio to wild type); higher = more cleavage; co-transcriptional
Would you please tag the item Criterion met when its self-cleavage is 0.3 or above, and Criterion not met when it is below?

q: # bool: self-cleavage of U9G C66U >= 0.3
a: Criterion met

q: Exam item: decide whether the reported self-cleavage for A28C A30U is at least 0.3.
a: Criterion not met

q: Has U20C A35U a recorded self-cleavage greater than or equal to 0.3?
a: Criterion met

q: Given the entry C10U G40U , answer whether its self-cleavage meets or surpasses 0.3.
a: Criterion not met

q: Say whether C4G G19A shows self-cleavage of 0.3 or more.
a: Criterion not met

q: Determine whether measured self-cleavage meets or exceeds 0.3 for U7A G13U
a: Criterion met

q: Is self-cleavage for U14C C38U at or above 0.3?
a: Criterion met

q: Could you tell me if the measured self-cleavage of G17C A24U reaches 0.3 or more?
a: Criterion met

q: Threshold query (self-cleavage >= 0.3) on U9A U60C
a: Criterion met

q: I'd appreciate it if you could say whether A11G U52C has self-cleavage at least equal to 0.3.
a: Criterion met

q: Test whether the variant A43G C50U records self-cleavage of 0.3 or higher.
a: Criterion not met

q: Please indicate if the recorded self-cleavage for C12G A64U meets or exceeds 0.3.
a: Criterion not met

q: // inclusive: self-cleavage at least 0.3? input: C4A A23G
a: Criterion not met

q: Answer whether self-cleavage of U33A G54C is greater than or equal to 0.3.
a: Criterion not met

q: Could you tell me if the measured self-cleavage of G15U G42U reaches 0.3 or more?
a: Criterion met

q: Has G15U A44U a recorded self-cleavage greater than or equal to 0.3?
a: Criterion not met

q: Textbook exercise: given the entry U20C U58C , state whether its self-cleavage is greater than or equal to 0.3.
a: Criterion met

q: Hi, just wondering whether G29A C50A shows self-cleavage of 0.3 or higher.
a: Criterion not met

q: Record C50A A59U ; criterion: self-cleavage no lower than 0.3. Met?
a: Criterion not met

q: Determine whether this variant has self-cleavage no lower than 0.3: G21C A47U
a: Criterion not met

q: Determine whether this variant has self-cleavage no lower than 0.3: C12G A31G
a: Criterion met

q: Hello, I need to know if U8C C50G has measured self-cleavage not below 0.3. Thanks!
a: Criterion not met

q: State whether the measured self-cleavage reaches 0.3, counting equality as reaching it, for C37G A49G
a: Criterion not met

q: Can U5A A28U be said to have self-cleavage at or above 0.3?
a: Criterion not met

q: Decide: is the reported value of self-cleavage for C46G G54U equal to or greater than 0.3?
a: Criterion not met

q: Dear colleague, could you confirm whether U55C A61C has self-cleavage at or above 0.3?
a: Criterion not met

q: Item G17A A36U with self-cleavage of 0.3 or above?
a: Criterion met

q: Confirm if self-cleavage reported for the variant U52G U60C is 0.3 or above.
a: Criterion met

q: Is self-cleavage at least 0.3? Consider U8C G29A
a: Criterion not met

q: hey, is self-cleavage for this one >= 0.3? C6A G42U
a: Criterion not met

q: Does C4U G56U have a reported self-cleavage of at least 0.3?
a: Criterion not met

q: Could you verify whether the entry C6A A45U shows self-cleavage of no less than 0.3?
a: Criterion not met
